Taken from patent US11571480B2.

System: human nasopharyngeal cancer cell line KB
experiment-description: Cytotoxicity test of conjugate LDC1013
Assay type: cell-based
run-parameters: incubated 15-30 min, then 2-3 days
Square brackets hold non-standard residues; d marks the D form. Peptide text beside a SMILES is read from it. * marks the point of attachment. Dolaproine = CO[C@@H]([C@@H]1CCCN1)[C@@H](C)C(=O)O; Dil = CC[C@H](C)[C@H](NC)[C@@H](CC(=O)O)OC; X1 = C[C@@H](N*)[C@@H](O)c1ccccc1; NMeV = CN[C@H](C(=O)O)C(C)C
assay-metric: pIC50
// field semantics: pIC50 = negative decimal log of concentration (mol/L)

Form field: reported pIC50 of CC[C@H](C)[C@@H]([C@@H](CC(=O)N1CCC[C@H]1[C@H](OC)[C@@H](C)C(=O)N[C@H](C)[C@@H](O)c1ccccc1)OC)N(C)C(=O)[C@@H](NC(=O)[C@@H](NC)C(C)C)C(C)C [MMAE] (H-[NMeV]V[Dil][Dolaproine]-X1) 7.70

* * *

Tested on: human embryonic kidney cell 293A
experiment-description: Cytotoxicity test of conjugate LDC11B
Type: cell-based
run-parameters: incubated 15-30 min, then 2-3 days
Square brackets hold non-standard residues; d marks the D form. Peptide text beside a SMILES is read from it. * marks the point of attachment. Dolaproine = CO[C@@H]([C@@H]1CCCN1)[C@@H](C)C(=O)O; Dil = CC[C@H](C)[C@H](NC)[C@@H](CC(=O)O)OC; X1 = C[C@@H](N*)[C@@H](O)c1ccccc1; NMeV = CN[C@H](C(=O)O)C(C)C
assay-metric: IC50 (nM)
Please give a number only; it is taken to be in nM.

human embryonic kidney cell 293A / IC50 / CC[C@H](C)[C@@H]([C@@H](CC(=O)N1CCC[C@H]1[C@H](OC)[C@@H](C)C(=O)N[C@H](C)[C@@H](O)c1ccccc1)OC)N(C)C(=O)[C@@H](NC(=O)[C@@H](NC)C(C)C)C(C)C [MMAE] (H-[NMeV]V[Dil][Dolaproine]-X1) : value? 0.86

* * *

Test system: human breast cancer cell SK-BR-3
experiment-description: Cytotoxicity test of conjugate LDC10B
Type: cell-based
run-parameters: SK-BR-3, Incubation Time 30 min
Square brackets hold non-standard residues; d marks the D form. Peptide text beside a SMILES is read from it. * marks the point of attachment. Dolaproine = CO[C@@H]([C@@H]1CCCN1)[C@@H](C)C(=O)O; Dil = CC[C@H](C)[C@H](NC)[C@@H](CC(=O)O)OC; X1 = C[C@@H](N*)[C@@H](O)c1ccccc1; NMeV = CN[C@H](C(=O)O)C(C)C
assay-metric: pIC50
// field semantics: pIC50 = negative decimal log of concentration (mol/L)

human breast cancer cell SK-BR-3 / pIC50 / CC[C@H](C)[C@@H]([C@@H](CC(=O)N1CCC[C@H]1[C@H](OC)[C@@H](C)C(=O)N[C@H](C)[C@@H](O)c1ccccc1)OC)N(C)C(=O)[C@@H](NC(=O)[C@@H](NC)C(C)C)C(C)C [MMAE] (H-[NMeV]V[Dil][Dolaproine]-X1) : value? 9.28

* * *

Test system: ovarian cancer cell SKOV3
experiment-description: Cytotoxicity test of conjugate LDC11B
Format: cell-based, human
run-parameters: SKOV3, incubated 15-30 min, then 2-3 days
Square brackets hold non-standard residues; d marks the D form. Peptide text beside a SMILES is read from it. * marks the point of attachment. Dolaproine = CO[C@@H]([C@@H]1CCCN1)[C@@H](C)C(=O)O; Dil = CC[C@H](C)[C@H](NC)[C@@H](CC(=O)O)OC; X1 = C[C@@H](N*)[C@@H](O)c1ccccc1; NMeV = CN[C@H](C(=O)O)C(C)C
assay-metric: pIC50
// field semantics: pIC50 = negative decimal log of concentration (mol/L)

Form field: reported pIC50 of CC[C@H](C)[C@@H]([C@@H](CC(=O)N1CCC[C@H]1[C@H](OC)[C@@H](C)C(=O)N[C@H](C)[C@@H](O)c1ccccc1)OC)N(C)C(=O)[C@@H](NC(=O)[C@@H](NC)C(C)C)C(C)C [MMAE] (H-[NMeV]V[Dil][Dolaproine]-X1) 9.36

* * *

Test system: human gastric cancer cell N87
experiment-description: Cytotoxicity test of conjugate LDC10B
Format: cell-based
run-parameters: N87, Incubation Time 30 min
Square brackets hold non-standard residues; d marks the D form. Peptide text beside a SMILES is read from it. * marks the point of attachment. Dolaproine = CO[C@@H]([C@@H]1CCCN1)[C@@H](C)C(=O)O; Dil = CC[C@H](C)[C@H](NC)[C@@H](CC(=O)O)OC; X1 = C[C@@H](N*)[C@@H](O)c1ccccc1; NMeV = CN[C@H](C(=O)O)C(C)C
assay-metric: IC50 (nM)
Please give a number only; it is taken to be in nM.

Form field: reported IC50 of CC[C@H](C)[C@@H]([C@@H](CC(=O)N1CCC[C@H]1[C@H](OC)[C@@H](C)C(=O)N[C@H](C)[C@@H](O)c1ccccc1)OC)N(C)C(=O)[C@@H](NC(=O)[C@@H](NC)C(C)C)C(C)C [MMAE] (H-[NMeV]V[Dil][Dolaproine]-X1) 0.68

* * *

Test system: human endometrial cancer cell HEC-1A
experiment-description: Cytotoxicity test of conjugate LDC13B
Type: cell-based
run-parameters: incubated 15-30 min, then 2-3 days
Square brackets hold non-standard residues; d marks the D form. Peptide text beside a SMILES is read from it. * marks the point of attachment. Dolaproine = CO[C@@H]([C@@H]1CCCN1)[C@@H](C)C(=O)O; Dil = CC[C@H](C)[C@H](NC)[C@@H](CC(=O)O)OC; X1 = C[C@@H](N*)[C@@H](O)c1ccccc1; NMeV = CN[C@H](C(=O)O)C(C)C
assay-metric: IC50

Form field: reported IC50 of CC[C@H](C)[C@@H]([C@@H](CC(=O)N1CCC[C@H]1[C@H](OC)[C@@H](C)C(=O)N[C@H](C)[C@@H](O)c1ccccc1)OC)N(C)C(=O)[C@@H](NC(=O)[C@@H](NC)C(C)C)C(C)C [MMAE] (H-[NMeV]V[Dil][Dolaproine]-X1) 8.74 nM

* * *

Tested on: chronic myeloid leukemia cell line K562
experiment-description: Cytotoxicity test of conjugate LDC10B
Assay type: cell-based
run-parameters: K562, Incubation Time 30 min
Square brackets hold non-standard residues; d marks the D form. Peptide text beside a SMILES is read from it. * marks the point of attachment. Dolaproine = CO[C@@H]([C@@H]1CCCN1)[C@@H](C)C(=O)O; Dil = CC[C@H](C)[C@H](NC)[C@@H](CC(=O)O)OC; X1 = C[C@@H](N*)[C@@H](O)c1ccccc1; NMeV = CN[C@H](C(=O)O)C(C)C
assay-metric: IC50 (nM)
Please give a number only; it is taken to be in nM.

Form field: reported IC50 of CC[C@H](C)[C@@H]([C@@H](CC(=O)N1CCC[C@H]1[C@H](OC)[C@@H](C)C(=O)N[C@H](C)[C@@H](O)c1ccccc1)OC)N(C)C(=O)[C@@H](NC(=O)[C@@H](NC)C(C)C)C(C)C [MMAE] (H-[NMeV]V[Dil][Dolaproine]-X1) 0.54

* * *

System: human neuroblastoma cell line SH-SY5Y
experiment-description: Cytotoxicity test of conjugate LDC12B
Format: cell-based
run-parameters: incubated 15-30 min, then 2-3 days
Method: Culture medium: RPMI 1640 Medium, no folic acid 1) human endometrial cancer cell HEC-1A, human gastric cancer cell line GTL-16, human colon carcinoma HCT-116, human neuroblastoma cell line SH-SY5Y were incubated at 37° C., 5% CO2 in RPMI 1640 medium containing 10% fetal bovine serum, the cells were passaged every 2-3 days. […] 5) the plate was read at 490 nm on a microplate reader, and the cell survivals were compared for cells with or without the treatment of LDC conjugates. […]
Square brackets hold non-standard residues; d marks the D form. Peptide text beside a SMILES is read from it. * marks the point of attachment. Dolaproine = CO[C@@H]([C@@H]1CCCN1)[C@@H](C)C(=O)O; Dil = CC[C@H](C)[C@H](NC)[C@@H](CC(=O)O)OC; X1 = C[C@@H](N*)[C@@H](O)c1ccccc1; NMeV = CN[C@H](C(=O)O)C(C)C
assay-metric: pIC50
// field semantics: pIC50 = negative decimal log of concentration (mol/L)

Form field: reported pIC50 of CC[C@H](C)[C@@H]([C@@H](CC(=O)N1CCC[C@H]1[C@H](OC)[C@@H](C)C(=O)N[C@H](C)[C@@H](O)c1ccccc1)OC)N(C)C(=O)[C@@H](NC(=O)[C@@H](NC)C(C)C)C(C)C [MMAE] (H-[NMeV]V[Dil][Dolaproine]-X1) 7.62

* * *

System: human colon carcinoma HCT-116
experiment-description: Cytotoxicity test of conjugate LDC13B
Type: cell-based
run-parameters: HCT-116, incubated 15-30 min, then 2-3 days
Square brackets hold non-standard residues; d marks the D form. Peptide text beside a SMILES is read from it. * marks the point of attachment. Dolaproine = CO[C@@H]([C@@H]1CCCN1)[C@@H](C)C(=O)O; Dil = CC[C@H](C)[C@H](NC)[C@@H](CC(=O)O)OC; X1 = C[C@@H](N*)[C@@H](O)c1ccccc1; NMeV = CN[C@H](C(=O)O)C(C)C
assay-metric: pIC50
// field semantics: pIC50 = negative decimal log of concentration (mol/L)

Form field: reported pIC50 of CC[C@H](C)[C@@H]([C@@H](CC(=O)N1CCC[C@H]1[C@H](OC)[C@@H](C)C(=O)N[C@H](C)[C@@H](O)c1ccccc1)OC)N(C)C(=O)[C@@H](NC(=O)[C@@H](NC)C(C)C)C(C)C [MMAE] (H-[NMeV]V[Dil][Dolaproine]-X1) 7.90
